target: STAT6 protein (Homo sapiens, UniProt P42226); assay: Fluorescence polarization (FP) binding assay, STAT6; settings: FP competition, 5 nM fluorescein-labeled tracer, 200 nM protein, PBS pH7.4; read-out: Binding STAT6
pKi: −log10 of the molar value.
READOUT_NAME: pKi

[[record]]
compound = "CCN1CCC(C[C@H](NC(=O)c2cc3cc(C(F)(F)P(=O)(O)O)ccc3s2)C(=O)N2CCC[C@H]2C(=O)N2CCO[C@H](c3ccccc3)C2)CC1"
readout_name = "pKi"
result = "6.00 to 7.00"

[[record]]
compound = "CC(C)(C)[C@H](NC(=O)c1cc2cc(C(F)(F)P(=O)(O)O)ccc2s1)C(=O)N1CCC[C@H]1C(=O)N1CCOC(Cc2ccccc2)C1 (some centres unmarked)"
readout_name = "pKi"
result = "5.00 to 6.00"

[[record]]
compound = "CC(C)(C)[C@H](NC(=O)c1cc2cc(C(F)(F)P(=O)(O)O)ccc2[nH]1)C(=O)N1CCC[C@H]1C(=O)NC1CCc2ccccc21 (some centres unmarked)"
readout_name = "pKi"
result = "5.00 to 6.00"

[[record]]
compound = "CC(C)(C)[C@H](NC(=O)c1cc2cc(C(F)(F)P(=O)(O)O)ccc2s1)C(=O)N1CCC[C@H]1C(=O)N1CCS(=O)(=O)[C@@H](c2ccccc2)C1"
readout_name = "pKi"
result = "6.00 to 7.00"

[[record]]
compound = "CC(C)(C)[C@H](NC(=O)c1cc2cc(C(F)(F)P(=O)(O)O)ccc2s1)C(=O)N1Cc2ccccc2C[C@H]1C(=O)N1CCOC(c2ccncc2)C1 (some centres unmarked)"
readout_name = "pKi"
result = "6.00 to 7.00"


---

Target: STAT6 protein (Homo sapiens, UniProt P42226)
Sequence (P42226 1-847): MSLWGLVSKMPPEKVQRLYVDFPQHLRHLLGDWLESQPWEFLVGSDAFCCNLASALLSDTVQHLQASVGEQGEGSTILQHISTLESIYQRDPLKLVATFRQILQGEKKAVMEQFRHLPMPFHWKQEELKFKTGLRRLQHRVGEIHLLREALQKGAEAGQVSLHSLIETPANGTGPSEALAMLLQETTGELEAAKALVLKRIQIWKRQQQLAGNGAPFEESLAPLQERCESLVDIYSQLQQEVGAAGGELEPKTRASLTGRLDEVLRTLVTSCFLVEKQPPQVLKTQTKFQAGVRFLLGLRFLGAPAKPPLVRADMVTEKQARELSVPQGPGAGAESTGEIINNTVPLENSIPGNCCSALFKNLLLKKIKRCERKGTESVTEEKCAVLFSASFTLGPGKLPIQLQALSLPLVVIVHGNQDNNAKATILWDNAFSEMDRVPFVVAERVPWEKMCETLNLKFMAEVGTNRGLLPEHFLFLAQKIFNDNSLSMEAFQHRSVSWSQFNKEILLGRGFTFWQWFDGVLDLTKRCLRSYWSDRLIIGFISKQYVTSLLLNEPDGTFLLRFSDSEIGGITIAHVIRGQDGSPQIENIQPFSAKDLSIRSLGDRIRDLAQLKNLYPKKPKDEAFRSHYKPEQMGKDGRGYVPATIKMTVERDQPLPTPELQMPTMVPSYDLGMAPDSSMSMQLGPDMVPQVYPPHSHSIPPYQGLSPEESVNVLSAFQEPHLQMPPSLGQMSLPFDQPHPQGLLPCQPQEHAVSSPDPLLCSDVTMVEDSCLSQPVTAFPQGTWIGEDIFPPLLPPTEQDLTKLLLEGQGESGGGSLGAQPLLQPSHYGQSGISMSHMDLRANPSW
Assay: Fluorescence polarization (FP) binding assay, STAT6
Conditions: FP competition, 5 nM fluorescein-labeled tracer, 200 nM protein, PBS pH7.4; read-out: Binding STAT6
Each item that follows carries a reported Ki.
READOUT_NAME: Ki

[[record]]
molecule = "CC(=O)N1CCN(C(=O)[C@@H]2CCCN2C(=O)[C@@H](NC(=O)c2cc3cc(C(F)(F)P(=O)(O)O)ccc3s2)C(C)(C)C)C[C@H]1c1ccccc1"
target_or_test_system = "STAT6 protein (Homo sapiens, UniProt P42226)"
result = "1000 to 10000 nM"

[[record]]
molecule = "CC(C)(C)[C@H](NC(=O)c1cc2cc(C(F)(F)P(=O)(O)O)ccc2s1)C(=O)N1CCC[C@H]1C(=O)N1CCS(=O)(=O)[C@H](c2ccccc2)C1"
target_or_test_system = "STAT6 protein (Homo sapiens, UniProt P42226)"
result = "100 to 1000 nM"

[[record]]
molecule = "CC(C)(C)[C@H](NC(=O)c1cc2cc(C(F)(F)P(=O)(O)O)ccc2s1)C(=O)N1Cc2ccccc2C[C@H]1C(=O)N1CCOC(c2cc(Cl)cc(Cl)c2)C1 (some centres unmarked)"
target_or_test_system = "STAT6 protein (Homo sapiens, UniProt P42226)"
result = "100 to 1000 nM"

[[record]]
molecule = "CC(C)(C)[C@H](NC(=O)c1cc2cc(C(F)(F)P(=O)(O)O)ccc2s1)C(=O)N1Cc2ccccc2C[C@H]1C(=O)N1CCOC(C2CCCCC2)C1 (some centres unmarked)"
target_or_test_system = "STAT6 protein (Homo sapiens, UniProt P42226)"
result = "100 to 1000 nM"

[[record]]
molecule = "CC(C)(C)[C@H](NC(=O)c1cc2cc(C(F)(F)P(=O)(O)O)ccc2[nH]1)C(=O)N1CCC[C@H]1C(=O)N1CCN(c2ccccc2)CC1"
target_or_test_system = "STAT6 protein (Homo sapiens, UniProt P42226)"
result = "1000 to 10000 nM"


---

Each item that follows carries a reported Ki.
target: STAT6 protein (Homo sapiens); test: Fluorescence polarization (FP) binding assay, STAT6; settings: FP competition, 5 nM fluorescein-labeled tracer, 200 nM protein, PBS pH7.4; read-out: Binding STAT6
READOUT_NAME: Ki

[[record]]
molecule = "O=C(N[C@@H](CC1CCN(CCCc2ccccc2)CC1)C(=O)N1CCC[C@H]1C(=O)N1CCO[C@H](c2ccccc2)C1)c1cc2cc(C(F)(F)P(=O)(O)O)ccc2s1"
result = "100 to 1000 nM"

[[record]]
molecule = "O=C(N[C@@H](Cc1ccc2ccccc2c1)C(=O)N1CCC[C@H]1C(=O)N1CCO[C@H](c2ccccc2)C1)c1cc2cc(C(F)(F)P(=O)(O)O)ccc2s1"
result = "100 to 1000 nM"

[[record]]
molecule = "CC(=O)N1CC[C@H]2CC[C@@H](C(=O)NC(c3ccccc3)c3ccccc3)N2C(=O)[C@@H](NC(=O)/C=C/c2ccc(C(F)(F)P(=O)(O)O)cc2)C1"
result = "> 10000 nM"

[[record]]
molecule = "CNC(=O)c1ccc(N(C(=O)[C@@H]2CCCN2C(=O)[C@@H](NC(=O)c2cc3cc(C(F)(F)P(=O)(O)O)ccc3s2)C(C)(C)C)c2ccc(Cl)cc2)cc1"
result = "100 to 1000 nM"

[[record]]
molecule = "CC(C)(C)[C@H](NC(=O)c1cc2cc(C(F)(F)P(=O)(O)O)ccc2[nH]1)C(=O)N1CCC[C@H]1c1nc(Cc2ccccc2)cs1"
result = "1000 to 10000 nM"

[[record]]
molecule = "CC(C)(C)[C@H](NC(=O)c1cc2cc(C(F)(F)P(=O)(O)O)ccc2[nH]1)C(=O)N1CCC[C@H]1C(=O)N(c1ccc(Cl)cc1)C1CCCCC1"
result = "100 to 1000 nM"

[[record]]
molecule = "Cc1ccccc1C1CN(C(=O)[C@@H]2CCCN2C(=O)[C@@H](NC(=O)c2cc3cc(C(F)(F)P(=O)(O)O)ccc3s2)C(C)(C)C)CCO1 (stereo partly shown)"
result = "100 to 1000 nM"

[[record]]
molecule = "CC(C)(C)[C@H](NC(=O)c1cc2cc(C(F)(F)P(=O)(O)O)ccc2s1)C(=O)N1CCC[C@H]1C(=O)N1CCC2(CCCCCC2)C1"
result = "1000 to 10000 nM"

[[record]]
molecule = "CC(=O)N1C[C@H]2CCN(C(=O)[C@@H]3CCCN3C(=O)[C@@H](NC(=O)c3cc4cc(C(F)(F)P(=O)(O)O)ccc4s3)C(C)(C)C)[C@H]2C1"
result = "> 10000 nM"

[[record]]
molecule = "CC(C)(C)[C@H](NC(=O)c1cc2cc(C(F)(F)P(=O)(O)O)ccc2s1)C(=O)N1Cc2ccccc2CC1C(=O)N1CC[C@@H](c2ccccc2)C1 (stereo partly shown)"
result = "> 10000 nM"


---

Each item that follows carries a reported pKi.
molecular target: UniProt P42226; test: Fluorescence polarization (FP) binding assay, STAT6; conditions: FP competition, 5 nM fluorescein-labeled tracer, 200 nM protein, PBS pH7.4; read-out: Binding STAT6
pKi: −log10 of the molar value.
READOUT_NAME: pKi

[[record]]
compound = "CC(C)(C)[C@H](NC(=O)c1cc2cc(C(F)(F)P(=O)(O)O)ccc2s1)C(=O)N1CCCCC[C@H]1C(=O)N1CCO[C@H](c2ccccc2)C1"
readout_name = "pKi"
result = "6.00 to 7.00"

[[record]]
compound = "CC(=O)N1CCN(C(=O)[C@@H]2CCCN2C(=O)[C@@H](NC(=O)c2cc3cc(C(F)(F)P(=O)(O)O)ccc3s2)C(C)(C)C)C[C@@H]1c1ccccc1"
readout_name = "pKi"
result = "5.00 to 6.00"

[[record]]
compound = "CC(=O)N1CC[C@H]2CC[C@@H](C(=O)NC(C)(C)c3ccccc3)N2C(=O)[C@@H](NC(=O)c2cc3cc(C(F)(F)P(=O)(O)O)ccc3[nH]2)C1"
readout_name = "pKi"
result = "< 5.00"

[[record]]
compound = "CC(C)(C)[C@H](NC(=O)c1cc2cc(C(F)(F)P(=O)(O)O)ccc2s1)C(=O)N1C[C@H](Oc2ccc3ccccc3c2)C[C@H]1C(=O)Nc1ncc(-c2ccccc2)s1"
readout_name = "pKi"
result = "5.00 to 6.00"

[[record]]
compound = "CCC(CC)CN1CCC(C[C@H](NC(=O)c2cc3cc(C(F)(F)P(=O)(O)O)ccc3s2)C(=O)N2CCC[C@H]2C(=O)N2CCO[C@H](c3ccccc3)C2)CC1"
readout_name = "pKi"
result = "6.00 to 7.00"

